- experimental system: Fibroblast growth factor receptor 3 (Homo sapiens)
- experimental setup: Compound concentration 20.0 uM, Protein concentration 2.0 uM, Result type QC Liability
- Description: Thermal Shift Assay. Domain: start/stop: P449-E759
y means recorded ΔTm is 1 °C or above; n means it is below 1 °C.

compound=C=C(F)C(=O)N1CCN(c2nc(OC[C@@H]3CCCN3C)nc3c2CCN(c2cccc4cccc(Cl)c24)C3)C[C@@H]1CC#N discrete_label=n
compound=CNc1ncc2cc(-c3ccc(-c4ncccc4F)cc3Cl)c(=O)n(C[C@H]3OC[C@H](N)CO3)c2n1 discrete_label=y
compound=CSc1ccc(C(=O)/C=C/c2cc(C)c(OC(C)(C)C(=O)O)c(C)c2)cc1 discrete_label=y
compound="COc1cc(O)c(C(CC(=O)N2C[C@H](C)C[C@H](C)C2)c2ccc3c(c2)OCO3)c(OC)c1 (some centres not stated)" discrete_label=n
compound=CNc1nc(-c2ccc3c(N)n[nH]c3c2)cc(N2C[C@@H](C(=O)NC3CCCCC3)CC[C@H]2C)n1 discrete_label=y

Proceed to the following item.
## Input Check the entry Cc1c(CN2CCC3(CC2)CN(c2ncnc4sc(CC(F)(F)F)cc24)C3)ccc2c1cc(C#N)n2CC(N)=O : does ΔTm equal or exceed 1 °C?
## Output n
